targetEntity: Vasopressin V2 receptor (Sus scrofa)
Sequence (P32307 whole entry): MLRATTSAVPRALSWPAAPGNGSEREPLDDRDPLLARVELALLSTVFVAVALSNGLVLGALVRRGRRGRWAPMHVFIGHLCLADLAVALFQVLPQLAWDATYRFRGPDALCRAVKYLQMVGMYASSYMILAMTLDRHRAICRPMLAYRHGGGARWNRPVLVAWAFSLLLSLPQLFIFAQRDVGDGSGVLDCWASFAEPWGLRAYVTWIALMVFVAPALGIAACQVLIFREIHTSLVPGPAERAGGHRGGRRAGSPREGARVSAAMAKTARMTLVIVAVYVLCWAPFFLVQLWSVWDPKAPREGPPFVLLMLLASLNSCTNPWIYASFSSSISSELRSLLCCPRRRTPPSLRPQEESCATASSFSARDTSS
testMethodNotes: Tested for inhibition of [3H]LVP binding to vasopressin receptor in medullary membranes of pig kidney.
Format: cell membranes
pKi: −log10 of the molar value. Numbered stars: 1 amine (or outer) side, 2 acyl side, 3 side chain; on linkers, the order of the positions; unused ones are H or OH. Bridge positions count the residues as written; N and C are the ends. Square brackets hold non-standard residues; d marks the D form. Peptide text beside a SMILES is read from it. * marks the point of attachment. X1 = O=C(CC1(S[*:2])CCCCC1)[*:1]; NH(CH2)5NH2 = NCCCCCN*
observedProperty: pKi

{"columns": ["molecule", "recordedNumber"],
 "data": [
  ["CCOc1ccc(C[C@H]2NC(=O)CC3(CCCCC3)SSC[C@@H](C(=O)N3CCC[C@H]3C(=O)N[C@@H](CCCCN)C(N)=O)NC(=O)[C@H](CC(N)=O)NC(=O)[C@H](C(C)C)NC(=O)[C@H](Cc3ccccc3)NC2=O)cc1", 7.43],
  ["CCOc1ccc(C[C@H]2NC(=O)CC3(CCCCC3)SSC[C@@H](C(=O)NCCCCCN)NC(=O)[C@H](CC(N)=O)NC(=O)[C@H](C(C)C)NC(=O)[C@H](Cc3ccccc3)NC2=O)cc1", 7.72],
  ["CCOc1ccc(C[C@H]2NC(=O)CC3(CCCCC3)SSC[C@@H](C(=O)N3CCC[C@H]3C(=O)NCCCCCN)NC(=O)[C@H](CC(N)=O)NC(=O)[C@H](C(C)C)NC(=O)[C@H](Cc3ccccc3)NC2=O)cc1 ([dY](Et)FVNCP-{NH(CH2)5NH2}; linker N-5 via X1)", 7.52],
  ["CCOc1ccc(C[C@H]2NC(=O)CC3(CCCCC3)SSC[C@@H](C(=O)N[C@@H](CCCCN)C(N)=O)NC(=O)[C@H](CC(N)=O)NC(=O)[C@H](C(C)C)NC(=O)[C@H](Cc3ccccc3)NC2=O)cc1", 7.59]
]}
